# Tested on: SNB-19
# ASSAY_DETAILS: NCI tumour cell line growth inhibition, 48 h
Active and inactive are the calls of the source. No stated cut-off is given here; in the data, active = GI50 up to about 1.1 µM and inactive = higher. *1 amine or outer side, *2 acyl side, *3 side chain or, on linkers, in order; H or OH if unused. Where a SMILES comes first, the peptide text is derived from it. Bridges are numbered along the chain shown (N, C = ends). Roman numbers before positions name the chains, in order. [ ]: non-standard residue; d: D form. Actinocin(1to9) = Cc1c2oc3c(C)ccc(C(=O)[*:2])c3nc-2c(C(=O)[*:1])c(N)c1=O; NMeV = CN[CH](C(=O)O)C(C)C; Sar = CNCC(=O)O
Possible outcomes: active, inactive

MOLECULE: S=C1/C(=N/c2ccccc2)N(c2ccccc2)/C(=N\c2ccccn2)N1c1ccccc1
LABEL: inactive
//
MOLECULE: CCOC(=O)c1c(-c2ccccc2)c(C(OC(c2ccccc2)c2c(-c3ccccc3)c(C(=O)OCC)n3ccccc23)c2ccccc2)c2ccccn12 (stereo unspecified)
LABEL: inactive
//
MOLECULE: COc1ccc(-c2c3c([nH]c(=S)c2C#N)CC(C)(C)CC3=O)cc1
LABEL: inactive
//
MOLECULE: Cc1ccc(S(=O)(=O)NN=C2CCCCCCCCCCC2)cc1
LABEL: inactive
//
MOLECULE: CN(Cc1ccccc1)c1cc(=O)n(C)c(=O)[nH]1
LABEL: inactive
//
MOLECULE: O=S1(=O)CCN(c2ccccc2CC(c2c[nH]c3ccccc23)c2c[nH]c3ccccc23)CC1
LABEL: inactive
//
MOLECULE: CNC(=S)N/N=C1\C(=O)N(CN2CCOCC2)c2ccc([N+](=O)[O-])cc21
LABEL: inactive
//
MOLECULE: O=c1c([Se]c2coc3ccccc3c2=O)coc2ccccc12
LABEL: inactive
//
MOLECULE: Nc1nc(=O)n(C2CC(O)C(O)C(CO)O2)cc1F (stereo unspecified)
LABEL: inactive
//
MOLECULE: CCOc1ccccc1NC(=O)C(=O)CC(=O)C1=C(C)Nc2ccccc2S1
LABEL: inactive
//
MOLECULE: COc1ccc2nc3cccc(C(=O)NCCN(C)C)c3nc2c1
LABEL: inactive
//
MOLECULE: O=P1(C(O)/C=C/c2ccccc2)N(Cc2ccccc2)[C@@H]2CCCC[C@H]2N1Cc1ccccc1 (stereo partly specified)
LABEL: inactive
//
MOLECULE: Cc1ccc2c(=O)c(C(=O)Nn3c(C)csc3=S)c[nH]c2n1
LABEL: inactive
//
MOLECULE: CN(C(=O)Cc1cc(Cl)c(Cl)cc1NC(=O)CCCN)[C@H]1CCCC[C@@H]1N1CCCC1
LABEL: inactive
//
MOLECULE: COc1ccc(CC2NC(=O)C(NC(=O)c3c4nc5c(C(=O)NC6C(=O)NC(Cc7ccc(OC)cc7)C(=O)N7CCCC7C(=O)N(C)CC(=O)N(C)C(C(C)C)C(=O)OC6C)ccc(C)c5oc-4c(C)c(=O)c3N)C(C)OC(=O)C(C(C)C)N(C)C(=O)CN(C)C(=O)C3CCCN3C2=O)cc1 (stereo unspecified) (I: TY(Me)P[Sar][NMeV] / II: TY(Me)P[Sar][NMeV]; ester I:1-I:C, II:1-II:C; linker I:N-II:N via Actinocin(1to9); configuration not given here)
LABEL: active
//
MOLECULE: CC(=O)Oc1c2c(c(OC(C)=O)c3c1n(C(C)=O)c1ccccc1n3C(C)=O)n(C(C)=O)c1ccccc1n2C(C)=O
LABEL: inactive
